# SYSTEM: T1, CLL-1 on U937 cells (human, UniProt Q5QGZ9 1-265)
# T1 construct: whole, on cells; also called CLEC12A; Clec12A
# T1 sequence: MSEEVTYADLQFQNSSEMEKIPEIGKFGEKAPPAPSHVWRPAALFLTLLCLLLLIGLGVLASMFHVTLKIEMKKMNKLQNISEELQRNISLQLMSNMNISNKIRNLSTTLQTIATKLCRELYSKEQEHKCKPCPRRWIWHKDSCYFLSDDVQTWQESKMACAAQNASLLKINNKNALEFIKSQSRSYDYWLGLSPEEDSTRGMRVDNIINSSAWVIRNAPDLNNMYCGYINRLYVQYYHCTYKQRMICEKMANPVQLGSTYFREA
# EXPERIMENTAL_DETAILS: flow cytometry on U937 cells, VHH in 3-fold dilutions, detected with a-His-PE; percent of cells positive
VALUE_TYPE: % binding at 333.3 ng/ml (%)

For orientation, consider the following solved cases.
>>> measurement("VHH clone 2H3 (VHH, Includes myc and His tags; also called 2H3 VHH-Myc-His; VHH 2H3) VHH: QVQLQESGGGLVQAGGSLRLSCVASGSIRSINVMGWYRQAPGKQRELVAACASDGNTYYADSVKGRFTISRDNAEKTVYLQMNNLKPDDTAVYYCDANSRGNYYSGQGTQVTVSS")
89.9
>>> measurement("VHH clone 2F5 (VHH, Includes myc and His tags) VHH: QVQLQQSGGGLAQTGGSLILSCAASGSIFAINEINLMGWYRQAPGKQRELVAACASDGNTYYADSVKGRFTISRDNAEKTVYLQMNNLKPDDTAVYYCDANSRGNYYSGQGTQVTVSS")
86.7

P: VHH clone 1H1 (VHH, includes myc and His tags; also called 2F4) VHH: QVQLQESGGGLVQPGGSLRLSCAASGFTFNSYAMTWVRQAPGKGLEWVSDINSGGGSTNYADSVKGRFTISRDNAKNTLYLQMNSLKPEDTAVYYCATELRGSDYYRGPIREYAYWGQGTLVTVSS
Q: VHH clone 1G6 (VHH, includes myc and His tags; also called 2G11; 2H2) VHH: QVQLQQSGGGLVQAGGSLRLSCAASGSIFAINEINLMGWYRQAPGKQRELVAACASDGNTYYADSVKGRFTISRDNAEKTVYLQMNNLKPDDTAVYYCDANSRGNYYSGQGTQVTVSS
Lab note: check whether P or Q shows the higher recorded % binding at 333.3 ng/ml. Write the label of whichever entry you select.
Q
(Q: 88.2%, P: 10.4%)
